Examples of compounds with documented pIC50 follow.
- TARGET_SYSTEM: HDM2 protein (Homo sapiens)
- Sequence (Q00987 whole entry): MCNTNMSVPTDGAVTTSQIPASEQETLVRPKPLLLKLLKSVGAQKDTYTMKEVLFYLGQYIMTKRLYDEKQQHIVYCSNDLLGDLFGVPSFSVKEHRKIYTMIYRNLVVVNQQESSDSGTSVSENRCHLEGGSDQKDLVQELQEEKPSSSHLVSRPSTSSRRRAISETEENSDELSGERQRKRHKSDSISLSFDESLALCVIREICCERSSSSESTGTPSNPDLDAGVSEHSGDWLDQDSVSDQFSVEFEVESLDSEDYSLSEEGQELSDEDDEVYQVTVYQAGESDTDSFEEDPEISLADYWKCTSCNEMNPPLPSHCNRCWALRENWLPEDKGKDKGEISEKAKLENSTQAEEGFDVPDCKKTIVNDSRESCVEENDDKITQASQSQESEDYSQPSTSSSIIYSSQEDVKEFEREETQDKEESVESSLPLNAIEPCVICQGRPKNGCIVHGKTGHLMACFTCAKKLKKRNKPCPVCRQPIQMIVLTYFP
- RUN_DESCRIPTION: fluorescence polarization screening assay (FP IC50)
- Assay type: binding
- TEST_SETTINGS: class symbols
pIC50: −log10 of the molar value.

COMPOUND: CCC[C@H]1N(C(=O)c2ncccc2C(F)(F)F)CCC[C@@]1(Oc1csc(C(F)(F)F)c1)C(=O)N1CCc2cc(F)ccc2C1CCC(=O)NCc1nn[nH]n1 (stereo partly drawn) [Compound A59]
ENDPOINT: pIC50
OBSERVED_RESULT: 7.00 to 9.00

Dear colleague, I am looking for the recorded pIC50 of the following compound: COCCN(C)CC[C@H]1N(C(=O)c2ncccc2C(F)(F)F)CCC[C@@]1(Oc1csc(C(F)(F)F)c1)C(=O)N1CCc2cc(Cl)ccc2C1 [Compound A117] 7.00 to 9.00

Again, but for CCC[C@H]1N(C(=O)c2ncccc2C(F)(F)F)CCC[C@@]1(Oc1csc(C(F)(F)F)c1)C(=O)N1CCc2sc(Cl)cc2C1CN1CCCC1 (stereo partly drawn) [Compound A35] 4.70 to 7.00

###

- TARGET_SYSTEM: HDM2 protein (Homo sapiens)
- RUN_DESCRIPTION: fluorescence polarization screening assay (FP IC50)
- Type: binding
- TEST_SETTINGS: class symbols
pIC50: −log10 of the molar value.
Examples of molecules with documented pIC50 follow.

Take a look at these entries with their results.
MOLECULE: CCC[C@H]1N(C(=O)c2ncccc2C(F)(F)F)CCC[C@@]1(Oc1csc(C(F)(F)F)c1)C(=O)N1CCc2cc(Cl)ccc2C1
pIC50: 7.00 to 9.00
//
MOLECULE: CCC[C@H]1N(C(=O)c2ncccc2C(F)(F)F)CCC[C@@]1(Oc1csc(C(F)(F)F)c1)C(=O)N1CCc2cc(F)ccc2C1C(=O)N1CCN(CCO)CC1 (stereo partly drawn) [Compound A93]
pIC50: 7.00 to 9.00
//
MOLECULE: CCC[C@H]1N(C(=O)c2ncccc2C(F)(F)F)CCC[C@@]1(Oc1csc(C(F)(F)F)c1)C(=O)N1Cc2ccc(F)cc2C[C@@H]1CCCCC(=O)O
pIC50: 7.00 to 9.00
//
MOLECULE: CCC[C@H]1N(C(=O)c2ncccc2C(F)(F)F)CCC[C@@]1(Oc1csc(C(F)(F)F)c1)C(=O)N1CCc2cc(Cl)ccc2C1CC(=O)N1CCNC(=O)C1 (stereo partly drawn) [Compound A81]
pIC50: 7.00 to 9.00
//
MOLECULE: CCC[C@H]1N(C(=O)c2ncccc2C(F)(F)F)CCC[C@@]1(Oc1csc(C(F)(F)F)c1)C(=O)N1Cc2ccc(Cl)cc2C[C@@H]1CN(C)C(=O)CC
pIC50: 7.00 to 9.00
//
MOLECULE: CCC[C@H]1N(C(=O)c2ncccc2C(F)(F)F)CCC[C@@]1(Oc1csc(C(F)(F)F)c1)C(=O)N1CCc2cc(Cl)ccc2C1COC (stereo partly drawn) [Compound A106]
pIC50: 7.00 to 9.00
//
MOLECULE: CCC[C@H]1N(C(=O)c2ncccc2C(F)(F)F)CCC[C@@]1(Oc1csc(C(F)(F)F)c1)C(=O)N1Cc2ccc(F)cc2C[C@@H]1CCN(C)C(=O)[C@@H](C)O
pIC50: 7.00 to 9.00
//
MOLECULE: CCC[C@H]1N(C(=O)c2ncccc2C(F)(F)F)CCC[C@@]1(Oc1csc(C(F)(F)F)c1)C(=O)N1CCc2cc(Cl)ccc2C1CC(=O)O (stereo partly drawn) [Compound A55]
pIC50: 7.00 to 9.00
//
MOLECULE: CCC[C@H]1N(C(=O)c2ncccc2C(F)(F)F)CCC[C@@]1(Oc1csc(C(F)(F)F)c1)C(=O)N1CCc2cc(Cl)ccc2C1C#N (stereo partly drawn) [Compound A76]
pIC50: 4.70 to 7.00
//
MOLECULE: CCC[C@H]1N(C(=O)c2ncccc2C(F)(F)F)CCC[C@@]1(Oc1csc(C(F)(F)F)c1)C(=O)N1CCc2cc(Cl)ccc2C1CO (stereo partly drawn) [Compound A103]
pIC50: 4.70 to 7.00

Dear colleague, I am looking for the recorded pIC50 of the following molecule: `CCC[C@H]1N(C(=O)c2ncccc2C(F)(F)F)CCC[C@@]1(Oc1csc(C(F)(F)F)c1)C(=O)N1CCc2cc(Br)ccc2C1` 7.00 to 9.00

Again, but for `CCC[C@H]1N(C(=O)c2ncccc2C(F)(F)F)CCC[C@@]1(Oc1csc(C(F)(F)F)c1)C(=O)N1CCc2cc(S(C)(=O)=O)ccc2C1` 4.70 to 7.00

###

- TARGET_SYSTEM: HDM2 protein (Homo sapiens)
- RUN_DESCRIPTION: fluorescence polarization screening assay (FP IC50)
- Format: binding
- TEST_SETTINGS: class symbols
Examples of compounds with documented IC50 follow.

Take a look at these entries with their results.
COMPOUND: CCC[C@H]1N(C(=O)c2ncccc2C(F)(F)F)CCC[C@@]1(Oc1csc(C(F)(F)F)c1)C(=O)N1CCc2cc(F)ccc2C1C(=O)N1CCN(CCO)CC1 (stereo partly shown) [Compound A94]
ENDPOINT: IC50
OBSERVED_RESULT: 101 to 20000 nM

COMPOUND: CCC[C@H]1N(C(=O)c2ncccc2C(F)(F)F)CCC[C@@]1(Oc1csc(C(F)(F)F)c1)C(=O)N1CCc2cc(Cl)ccc2C1CC(C)(C)C(=O)NS(C)(=O)=O (single isomer, unassigned) [Compound A68]
ENDPOINT: IC50
OBSERVED_RESULT: 1 to 100 nM

COMPOUND: CCC[C@H]1N(C(=O)c2ncccc2C(F)(F)F)CCC[C@@]1(Oc1csc(C(F)(F)F)c1)C(=O)N1CCc2sc(Cl)cc2C1CCC(=O)NC (stereo partly shown)
ENDPOINT: IC50
OBSERVED_RESULT: 101 to 20000 nM

# evaluate next
Dear colleague, I am looking for the recorded IC50 of the following compound: `CCC[C@H]1N(C(=O)c2ncccc2C(F)(F)F)CCC[C@@]1(Oc1csc(C(F)(F)F)c1)C(=O)N1CCc2sccc2C1` 101 to 20000 nM

###

- TARGET_SYSTEM: HDM2 protein (Homo sapiens)
- RUN_DESCRIPTION: fluorescence polarization screening assay (FP IC50)
- Assay type: binding
- TEST_SETTINGS: class symbols
pIC50: −log10 of the molar value.
ENDPOINT: pIC50

Take a look at these entries with their results.
COMPOUND: CCC[C@H]1N(C(=O)c2ncccc2C(F)(F)F)CCC[C@@]1(Oc1csc(C(F)(F)F)c1)C(=O)N1Cc2ccc(Cl)cc2C[C@@H]1C[C@H](CC)C(=O)O [Compound A165]
ENDPOINT: pIC50
OBSERVED_RESULT: 7.00 to 9.00
--
COMPOUND: CCC[C@H]1N(C(=O)c2ncccc2C(F)(F)F)CCC[C@@]1(Oc1csc(C(F)(F)F)c1)C(=O)N1CCc2ccc(Br)cc2C1 [Compound A142]
ENDPOINT: pIC50
OBSERVED_RESULT: 4.70 to 7.00

Dear colleague, I am looking for the recorded pIC50 of the following compound: CCC[C@H]1N(C(=O)c2ncccc2C(F)(F)F)CCC[C@@]1(Oc1csc(C(F)(F)F)c1)C(=O)N1Cc2cc(F)ccc2CC1C(=O)O (stereo in doubt) [Compound A126] 7.00 to 9.00

Again, but for CCC[C@H]1N(C(=O)c2ncccc2C(F)(F)F)CCC[C@@]1(Oc1csc(C(F)(F)F)c1)C(=O)N1CCc2cc(Cl)ccc2C1C(=O)N1CCN(CCO)CC1 (some centres unmarked) [Compound A92] 4.70 to 7.00

Again, but for CCN1CCN(CC[C@H]2N(C(=O)c3ncccc3C(F)(F)F)CCC[C@@]2(Oc2csc(C(F)(F)F)c2)C(=O)N2CCc3cc(Cl)ccc3C2)CC1 [Compound A114] 7.00 to 9.00

Again, but for CCC[C@H]1N(C(=O)c2ncccc2C(F)(F)F)CCC[C@@]1(Oc1csc(C(F)(F)F)c1)C(=O)N1Cc2ccc(F)cc2C[C@@H]1C(=O)O [Compound A123] 7.00 to 9.00

Again, but for CCCC1N(C(=O)c2ncccc2C(F)(F)F)CCCC1(Oc1ccc(OC(F)(F)F)cc1)C(=O)N1CCc2cc(F)ccc2C1 (centres unmarked) [Compound A110] 4.70 to 7.00

Again, but for CCC[C@H]1N(C(=O)c2ncccc2C(F)(F)F)CCC[C@@]1(Oc1csc(C(F)(F)F)c1)C(=O)N1CCc2cc(Cl)ccc2[C@@H]1CCC(=O)N1CCC(C(=O)O)CC1 [Compound A99] 7.00 to 9.00

Again, but for CCC[C@H]1N(C(=O)c2ncccc2C(F)(F)F)CCC[C@@]1(Oc1csc(C(F)(F)F)c1)C(=O)N1CCc2ccsc2C1CC(C)(C)C(=O)OCC (some centres unmarked) [Compound A28] 4.70 to 7.00

Again, but for CCC[C@H]1N(C(=O)c2ncccc2C(F)(F)F)CCC[C@@]1(Oc1csc(C(F)(F)F)c1)C(=O)N1Cc2ccc(F)cc2C[C@H]1C(=O)N1CCN(C)CC1 [Compound A160] 4.70 to 7.00

Again, but for CCC[C@H]1N(C(=O)c2ncccc2C(F)(F)F)CCC[C@@]1(Oc1csc(C(F)(F)F)c1)C(=O)N1CCc2ccsc2C1CC(C)(C)C(=O)NCc1nnn[nH]1 (some centres unmarked) [Compound A30] 7.00 to 9.00

Just for reference, patent US9062071B2 is where these values come from.
